target.entity: human TLR9 (Homo sapiens, UniProt Q9NR96)
Construct: HA; host or cells: 293XL-hTLR9-HA (HEK293)
Sequence (Q9NR96 26-1032): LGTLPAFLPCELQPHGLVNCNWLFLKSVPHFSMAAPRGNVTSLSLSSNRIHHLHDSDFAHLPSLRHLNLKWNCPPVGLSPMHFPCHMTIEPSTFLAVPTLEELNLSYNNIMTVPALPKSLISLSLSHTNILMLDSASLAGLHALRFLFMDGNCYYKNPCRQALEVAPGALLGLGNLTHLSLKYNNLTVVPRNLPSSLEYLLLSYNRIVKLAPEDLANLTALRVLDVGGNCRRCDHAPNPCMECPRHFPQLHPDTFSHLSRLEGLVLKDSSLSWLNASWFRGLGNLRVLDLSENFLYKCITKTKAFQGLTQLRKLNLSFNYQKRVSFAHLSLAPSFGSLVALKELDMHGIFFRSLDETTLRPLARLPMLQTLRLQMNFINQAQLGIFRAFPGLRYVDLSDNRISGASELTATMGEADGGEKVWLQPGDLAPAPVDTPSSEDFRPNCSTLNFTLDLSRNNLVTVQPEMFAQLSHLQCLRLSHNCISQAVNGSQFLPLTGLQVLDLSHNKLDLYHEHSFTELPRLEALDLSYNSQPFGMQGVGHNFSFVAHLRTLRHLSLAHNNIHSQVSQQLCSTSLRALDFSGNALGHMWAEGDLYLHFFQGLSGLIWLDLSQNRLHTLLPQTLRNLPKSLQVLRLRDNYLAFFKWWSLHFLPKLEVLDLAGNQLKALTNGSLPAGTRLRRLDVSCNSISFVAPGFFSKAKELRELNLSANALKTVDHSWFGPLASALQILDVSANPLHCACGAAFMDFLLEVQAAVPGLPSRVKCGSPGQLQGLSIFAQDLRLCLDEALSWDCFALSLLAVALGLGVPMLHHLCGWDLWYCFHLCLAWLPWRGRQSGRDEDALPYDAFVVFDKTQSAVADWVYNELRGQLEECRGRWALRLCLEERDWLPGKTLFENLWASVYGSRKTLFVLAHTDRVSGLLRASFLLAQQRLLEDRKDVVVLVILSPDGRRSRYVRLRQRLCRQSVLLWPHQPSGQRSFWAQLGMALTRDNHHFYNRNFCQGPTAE
procedure.details: HEK-TLR9 NF-κB-luciferase reporter, ODN2006 stimulation
Assay type: cell-based
settings: MOE-modified ASO at 500 nM; averaged NF-κB-Luciferase relative to ODN2006 condition
Procedure: In such examples, inhibition of TLR9 activity can be identified by observation of an overall decreased TLR9 response of the cell population, or a lower proportion of cells having TLR9-positive activity as compared to positive control condition in which cells are treated with TLR9 agonist in the absence of the oligonucleotide (or in the presence of an appropriate control inhibitory agent). […] TLR9 activity can then be determined by a luciferase assay. […]
value.type: TLR9 500 nM

CAACACTTCGTGGGGTCCTT (antisense; 2'-MOE modified, pattern not given here) [HPRT-665 MOE] ... 0.619
ACAACCCCTTTCACCATCCC (antisense; 2'-MOE modified, pattern not given here) [MB21D1-689 MOE] ... 0.499
GCTGACAAAGATTCACTGGT (antisense; 2'-MOE modified, pattern not given here) [HPRT-1353 MOE] ... 0.654
TGGGCTGGAATCCGAGTTAT (antisense; 2'-MOE modified, pattern not given here) [EGFR-4705 MOE] ... 0.241
TGTCCTTGCACGTGGCTTCG (antisense; 2'-MOE modified, pattern not given here) [EGFR-1014 MOE] ... 0.623

# map each sequence to its TLR9 500 nM
1. AGGTCTTGGCTTCGTGGAGC (antisense; 2'-MOE modified, pattern not given here) [MB21D1-522 MOE]
2. ATCCAACACTTCGTGGGGTC (antisense; 2'-MOE modified, pattern not given here) [HPRT-668 MOE]
3. AGTCGTAGTTGCTTCCTAAC (antisense; 2'-MOE modified, pattern not given here) [MB21D1-1181 MOE]
4. TGGGTTACGGCTCAGTATGG (antisense; 2'-MOE modified, pattern not given here) [CAMSAP1-4295 MOE]
5. CGGCATCCACCACGTCGTCC (antisense; 2'-MOE modified, pattern not given here) [EGFR-3267 MOE]

Completion:
1. 0.280
2. 0.618
3. 0.341
4. 0.228
5. 0.373

# map each sequence to its TLR9 500 nM
1. GGTGTCCTTGCACGTGGCTT (antisense; 2'-MOE modified, pattern not given here) [EGFR-1016 MOE]
2. AGATCTGGCAGCCCATCAAC (antisense; 2'-MOE modified, pattern not given here) [CTNN2B-2516 MOE]

Completion:
[0.714, 0.268]
